Target: Carnitine O-palmitoyltransferase 1, muscle isoform (Homo sapiens)
Sequence (Q92523 whole entry, canonical isoform): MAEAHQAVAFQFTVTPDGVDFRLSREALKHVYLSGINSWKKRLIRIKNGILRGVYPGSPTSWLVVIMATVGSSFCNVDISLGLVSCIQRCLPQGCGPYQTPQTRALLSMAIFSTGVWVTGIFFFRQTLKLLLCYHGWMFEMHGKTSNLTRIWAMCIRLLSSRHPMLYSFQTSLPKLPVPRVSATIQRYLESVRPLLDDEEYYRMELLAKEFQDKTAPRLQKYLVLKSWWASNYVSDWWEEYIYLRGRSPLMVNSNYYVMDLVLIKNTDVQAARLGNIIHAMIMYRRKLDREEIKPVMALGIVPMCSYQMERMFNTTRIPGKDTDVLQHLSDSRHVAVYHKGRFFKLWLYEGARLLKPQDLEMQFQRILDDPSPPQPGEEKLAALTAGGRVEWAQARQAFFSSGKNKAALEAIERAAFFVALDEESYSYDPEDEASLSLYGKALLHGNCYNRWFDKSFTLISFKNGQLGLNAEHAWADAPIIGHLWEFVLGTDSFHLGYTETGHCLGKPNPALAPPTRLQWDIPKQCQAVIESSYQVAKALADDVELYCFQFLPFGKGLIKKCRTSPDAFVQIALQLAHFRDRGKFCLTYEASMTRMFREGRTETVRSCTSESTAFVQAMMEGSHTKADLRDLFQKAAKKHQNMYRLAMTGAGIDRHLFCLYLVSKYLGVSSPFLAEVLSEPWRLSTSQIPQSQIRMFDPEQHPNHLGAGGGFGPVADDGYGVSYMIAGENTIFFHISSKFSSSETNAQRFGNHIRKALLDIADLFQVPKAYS
Test: Inhibition of CPT1B (unknown origin) in KB cells
Type: cell-based
METRIC: pIC50
Answer as the number alone; pIC50 is minus log10 of concentration in mol/L.

Below, each entry is followed by its recorded pIC50 result.
COc1ccc(Cl)cc1S(=O)(=O)N1CC(C(=O)O)Oc2ccc(C(=O)Nc3cccc(F)c3)cc21 (stereo not drawn) = 7.80
O=C(O)C(=O)c1ccc(OCCOc2ccc3ccccc3c2)s1 = 4.80

Moving on to another compound below.
Quick one: pIC50 for COc1ccc(Cl)cc1S(=O)(=O)N1CCc2ccc(C(=O)Nc3ccc(C(=O)O)cc3)cc21 ?
7.68

====

Assay: Binding affinity to SPT (unknown origin) assessed as inhibition constant
Parameters: species or system Homo sapiens
METRIC: pKi
Entry type: numeric. Quantity: pKi, the -log10 of concentration in molar units.

Please report the recorded pKi for C/C(=C\CC12OC(C)(C)C3CC(C=C4C(=O)c5c(O)cccc5OC431)C2=O)COC(=O)c1cccnc1 (stereo unspecified) .
5.77

====

Biological target: Carnitine O-palmitoyltransferase 1, liver isoform (Homo sapiens, UniProt P50416)
Sequence (P50416 whole entry): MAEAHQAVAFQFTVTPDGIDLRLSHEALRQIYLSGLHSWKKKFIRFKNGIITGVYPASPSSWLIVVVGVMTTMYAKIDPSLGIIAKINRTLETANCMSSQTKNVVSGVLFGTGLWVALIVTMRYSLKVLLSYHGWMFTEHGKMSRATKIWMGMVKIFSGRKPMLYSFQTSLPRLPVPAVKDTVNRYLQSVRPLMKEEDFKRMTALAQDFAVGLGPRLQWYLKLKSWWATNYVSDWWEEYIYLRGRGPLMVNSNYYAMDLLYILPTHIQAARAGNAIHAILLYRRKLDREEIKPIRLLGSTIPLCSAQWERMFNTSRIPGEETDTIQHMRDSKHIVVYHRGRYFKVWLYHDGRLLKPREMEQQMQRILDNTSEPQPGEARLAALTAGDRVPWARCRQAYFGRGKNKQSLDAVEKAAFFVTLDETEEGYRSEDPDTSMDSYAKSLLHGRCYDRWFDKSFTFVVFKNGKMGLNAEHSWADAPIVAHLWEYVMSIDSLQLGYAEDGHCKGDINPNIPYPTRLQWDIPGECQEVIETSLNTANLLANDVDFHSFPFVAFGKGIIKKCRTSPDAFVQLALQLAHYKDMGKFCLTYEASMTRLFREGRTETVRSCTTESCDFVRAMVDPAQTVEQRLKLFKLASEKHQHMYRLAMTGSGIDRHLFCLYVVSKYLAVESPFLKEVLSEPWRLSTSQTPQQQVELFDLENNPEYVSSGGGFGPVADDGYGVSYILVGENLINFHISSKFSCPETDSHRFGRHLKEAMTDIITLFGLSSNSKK
Experiment: Inhibition of CPT1A (unknown origin)
METRIC: pIC50
Hey, just a heads up that pIC50 is the negative log base 10 of the concentration in molar.

# lookup: pIC50 of CCCCCCOc1cccc(OCCCCNC(=O)N[C@H](CC(=O)[O-])C[N+](C)(C)C)c1
6.89

====

# IC50 listing for each entry below
Target: Carnitine O-palmitoyltransferase 1, muscle isoform (Homo sapiens)
Assay: Inhibition of CPT1B (unknown origin)
# output: bare number, implied unit µM

CCCCCCOc1cccc(OCCCCNC(=O)N[C@H](CC(=O)[O-])C[N+](C)(C)C)c1 = 5.44

We next turn to a different molecule, shown below.
Query: IC50; subject: COc1ccc(CN2CCN(CCCSc3cc(C(C)(C)C)c(O)c(C(C)(C)C)c3)CC2)c(OC)c1OC
16.8

====

Molecular target: UniProt P23786
Sequence (P23786 whole entry): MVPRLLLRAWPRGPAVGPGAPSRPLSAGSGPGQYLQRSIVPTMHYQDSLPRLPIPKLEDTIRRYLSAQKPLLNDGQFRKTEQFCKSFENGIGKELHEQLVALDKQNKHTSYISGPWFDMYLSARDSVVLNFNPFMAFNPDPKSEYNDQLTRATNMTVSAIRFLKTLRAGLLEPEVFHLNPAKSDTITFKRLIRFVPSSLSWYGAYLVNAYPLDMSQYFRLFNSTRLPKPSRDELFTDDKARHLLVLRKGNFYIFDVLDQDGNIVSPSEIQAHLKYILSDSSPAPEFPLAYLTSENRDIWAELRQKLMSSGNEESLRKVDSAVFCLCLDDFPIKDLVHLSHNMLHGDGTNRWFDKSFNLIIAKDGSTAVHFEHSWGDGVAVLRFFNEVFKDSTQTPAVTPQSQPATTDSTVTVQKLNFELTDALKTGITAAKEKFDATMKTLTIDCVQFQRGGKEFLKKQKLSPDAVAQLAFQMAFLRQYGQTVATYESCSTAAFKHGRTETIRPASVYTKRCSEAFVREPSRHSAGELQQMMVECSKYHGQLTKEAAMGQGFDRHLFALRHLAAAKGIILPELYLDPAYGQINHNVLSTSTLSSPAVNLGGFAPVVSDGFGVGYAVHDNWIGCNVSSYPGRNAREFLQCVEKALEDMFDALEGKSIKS
pIC50: −log10 of the molar value. Where a name gives a salt, the structure may show the parent alone.
METRIC: pIC50

Query (compound): COc1cccc2c1C(=O)c1c(O)c3c(c(O)c1C2=O)C[C@@](O)(C(=O)CO)C[C@@H]3O[C@H]1C[C@H](N)[C@H](O)[C@H](C)O1 [DOXORUBICIN HYDROCHLORIDE] ; field requested: pIC50
< 4.00

====

Biological target: Carnitine O-palmitoyltransferase 2, mitochondrial (Rattus norvegicus, UniProt P18886)
Sequence (P18886 whole entry): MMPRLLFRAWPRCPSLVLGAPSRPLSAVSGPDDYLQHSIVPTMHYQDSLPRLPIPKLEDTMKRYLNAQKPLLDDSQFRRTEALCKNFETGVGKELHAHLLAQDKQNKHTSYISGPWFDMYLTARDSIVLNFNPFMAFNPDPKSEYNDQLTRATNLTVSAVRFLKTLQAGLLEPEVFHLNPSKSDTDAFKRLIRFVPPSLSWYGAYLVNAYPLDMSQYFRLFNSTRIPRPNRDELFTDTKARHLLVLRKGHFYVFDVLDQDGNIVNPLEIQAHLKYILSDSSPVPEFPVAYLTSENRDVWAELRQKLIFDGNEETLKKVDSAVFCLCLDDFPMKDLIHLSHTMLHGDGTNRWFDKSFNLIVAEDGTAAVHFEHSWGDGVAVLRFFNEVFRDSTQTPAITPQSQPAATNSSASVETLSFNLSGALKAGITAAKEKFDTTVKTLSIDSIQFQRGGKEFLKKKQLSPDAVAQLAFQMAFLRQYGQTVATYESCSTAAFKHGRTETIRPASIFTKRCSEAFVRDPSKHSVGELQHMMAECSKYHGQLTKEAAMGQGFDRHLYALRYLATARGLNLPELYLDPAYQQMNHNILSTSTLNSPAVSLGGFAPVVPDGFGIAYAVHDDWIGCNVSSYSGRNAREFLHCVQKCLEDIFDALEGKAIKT
METRIC: pIC50
When answering, recall that pIC50 equals minus log10 of the concentration in mol/L, and write that number alone.

# pIC50 lookup, item C1CCC(C(CC2CCCCN2)C2CCCCC2)CC1 (stereo unspecified)
4.11

====

Target: Protein-cysteine N-palmitoyltransferase HHAT (Homo sapiens)
Sequence (Q5VTY9 whole entry): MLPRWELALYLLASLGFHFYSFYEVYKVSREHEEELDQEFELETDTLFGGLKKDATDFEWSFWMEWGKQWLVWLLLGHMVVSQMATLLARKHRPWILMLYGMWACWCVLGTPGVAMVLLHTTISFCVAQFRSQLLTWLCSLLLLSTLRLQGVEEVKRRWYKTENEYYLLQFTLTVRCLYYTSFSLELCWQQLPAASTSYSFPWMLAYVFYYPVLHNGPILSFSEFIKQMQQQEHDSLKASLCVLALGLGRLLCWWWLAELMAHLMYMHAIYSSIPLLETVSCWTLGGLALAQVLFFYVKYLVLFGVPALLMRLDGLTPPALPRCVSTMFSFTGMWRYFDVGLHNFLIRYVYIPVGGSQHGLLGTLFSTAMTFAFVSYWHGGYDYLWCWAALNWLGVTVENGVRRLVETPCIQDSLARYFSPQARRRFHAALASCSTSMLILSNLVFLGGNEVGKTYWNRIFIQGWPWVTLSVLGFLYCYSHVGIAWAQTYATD
Assay: Binding affinity to His-tagged HHAT (unknown origin) transfected in HEK293FT cells assessed as inhibition constant
Assay type: cell-based
METRIC: Ki (µM)
Use µM as the unit, but write only the number.

If you can, please state the reported Ki value of CCC(C)CNCC(=O)N1CCc2sccc2C1COc1cccc(C)c1 (stereo unspecified) .
7.4

====

Biological target: Carnitine O-palmitoyltransferase 1, liver isoform (Rattus norvegicus, UniProt P32198)
Sequence (P32198 whole entry): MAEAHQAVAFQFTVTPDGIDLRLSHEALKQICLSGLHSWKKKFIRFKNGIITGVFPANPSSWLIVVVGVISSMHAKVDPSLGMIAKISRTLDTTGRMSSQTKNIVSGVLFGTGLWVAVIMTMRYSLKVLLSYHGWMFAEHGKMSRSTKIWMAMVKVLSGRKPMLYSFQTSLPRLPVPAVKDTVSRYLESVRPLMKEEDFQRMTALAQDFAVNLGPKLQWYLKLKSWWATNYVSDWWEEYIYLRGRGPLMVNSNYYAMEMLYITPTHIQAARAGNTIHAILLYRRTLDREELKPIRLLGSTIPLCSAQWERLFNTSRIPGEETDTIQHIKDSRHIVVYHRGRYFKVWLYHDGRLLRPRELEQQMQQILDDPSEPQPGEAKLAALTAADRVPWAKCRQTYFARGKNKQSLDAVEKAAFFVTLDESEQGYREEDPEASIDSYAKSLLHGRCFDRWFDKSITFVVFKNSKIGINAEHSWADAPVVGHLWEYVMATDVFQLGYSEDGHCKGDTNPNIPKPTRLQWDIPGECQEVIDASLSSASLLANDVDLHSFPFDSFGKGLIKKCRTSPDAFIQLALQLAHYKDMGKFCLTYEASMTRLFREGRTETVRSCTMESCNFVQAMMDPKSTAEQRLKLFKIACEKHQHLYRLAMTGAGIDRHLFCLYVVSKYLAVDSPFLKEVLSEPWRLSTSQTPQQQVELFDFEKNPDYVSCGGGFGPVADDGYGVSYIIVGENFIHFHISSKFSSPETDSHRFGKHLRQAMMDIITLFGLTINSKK
Assay: Inhibition of rat hepatocytes CPT1A
METRIC: pIC50
// returns pIC50 (minus log10 of molar concentration), number only

COc1ccc(Cl)cc1S(=O)(=O)N1CCc2ccc(C(=O)Nc3ccc(C(=O)O)cc3)cc21 = 5.96

Please turn your attention to the following entry.
What value of pIC50 has been reported for the following molecule? COc1ccc(Cl)cc1S(=O)(=O)N1CC(C(=O)O)Oc2ccc(C(=O)Nc3cccc(F)c3)cc21 (configuration not stated)
5.87

====

Catalogue of compounds with associated IC50
Molecular target: Transcriptional enhancer factor TEF-1 (Homo sapiens, UniProt P28347)
Sequence (P28347 whole entry, the tested form may be a part): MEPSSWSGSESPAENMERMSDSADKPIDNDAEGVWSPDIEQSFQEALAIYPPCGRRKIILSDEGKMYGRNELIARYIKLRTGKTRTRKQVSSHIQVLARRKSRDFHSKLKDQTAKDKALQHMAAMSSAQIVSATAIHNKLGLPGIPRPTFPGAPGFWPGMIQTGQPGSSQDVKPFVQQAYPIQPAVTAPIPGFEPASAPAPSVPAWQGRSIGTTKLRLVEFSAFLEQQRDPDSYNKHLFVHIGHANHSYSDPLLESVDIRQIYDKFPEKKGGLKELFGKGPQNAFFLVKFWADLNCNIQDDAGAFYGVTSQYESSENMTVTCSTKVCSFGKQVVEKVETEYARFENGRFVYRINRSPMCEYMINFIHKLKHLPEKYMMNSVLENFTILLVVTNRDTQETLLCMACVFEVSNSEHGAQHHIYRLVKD
Test: Inhibition of N-terminal His-tagged human TEAD1 expressed in Escherichia coli BL21 (DE3) (209 to 424 residues) by affinity chromatography analysis
The answer is to be given in nM; state only the numeric part.

C=CC(=O)N1C[C@@H](n2cc(C3CCOCC3)nn2)[C@H](OCc2ccc(C(F)(F)F)cc2)C1 = 45

Would you kindly look at the next entry?
Quick one: IC50 of C=C(F)C(=O)N1C[C@@H](Nc2ncccn2)[C@H](OCc2ccc(C(F)(F)F)cc2)C1 ?
11

====

Biological target: UniProt:O95372
Sequence (O95372 whole entry): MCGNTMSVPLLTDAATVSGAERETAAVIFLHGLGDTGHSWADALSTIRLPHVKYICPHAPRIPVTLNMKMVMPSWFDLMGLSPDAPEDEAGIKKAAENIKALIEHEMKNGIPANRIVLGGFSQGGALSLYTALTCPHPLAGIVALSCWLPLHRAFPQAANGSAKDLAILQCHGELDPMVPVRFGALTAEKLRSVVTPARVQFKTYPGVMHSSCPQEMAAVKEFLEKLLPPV
Reported values of pIC50 for individual entries
As a rule, pIC50 stands for the negative log10 of the concentration, concentration in M.

Lab note: need pIC50 with UniProt:O95372 for entry C#CCCCN(C)CCCS(=O)(=O)CCCC[C@@H]1C(=O)O[C@H]1CCCCCCCCCC , please look it up.
7.19

Same lookup for C#CCCCCCCCC[C@@H]1C(=O)O[C@H]1CCc1ccc(OC)c(OC)c1 , please.
7.62

====

Assay: cells
Conditions: Homo sapiens, HEK-293T, 24 h
METRIC: IC50 (nM)
I only need the number, in nM, no unit after it.

Example entries and their recorded answers appear below.
Cn1c(=O)c2c(ncn2CC(=O)Nc2ccc(-c3ccccc3)nn2)n(C)c1=O = 2.9
Cc1c(-c2ccnc(C(F)(F)F)c2)ncn1CC(=O)Nc1ccc(-c2cnccn2)cn1 = 0.064

Consider now this further compound.
// lookup IC50 for Cc1cc(-c2ncc(CC(=O)Nc3ccc(-c4cnccn4)cn3)cc2C)ccn1
0.2

====

Molecular target: Phosphatidylserine lipase ABHD16A (Homo sapiens)
Sequence (O95870 whole entry): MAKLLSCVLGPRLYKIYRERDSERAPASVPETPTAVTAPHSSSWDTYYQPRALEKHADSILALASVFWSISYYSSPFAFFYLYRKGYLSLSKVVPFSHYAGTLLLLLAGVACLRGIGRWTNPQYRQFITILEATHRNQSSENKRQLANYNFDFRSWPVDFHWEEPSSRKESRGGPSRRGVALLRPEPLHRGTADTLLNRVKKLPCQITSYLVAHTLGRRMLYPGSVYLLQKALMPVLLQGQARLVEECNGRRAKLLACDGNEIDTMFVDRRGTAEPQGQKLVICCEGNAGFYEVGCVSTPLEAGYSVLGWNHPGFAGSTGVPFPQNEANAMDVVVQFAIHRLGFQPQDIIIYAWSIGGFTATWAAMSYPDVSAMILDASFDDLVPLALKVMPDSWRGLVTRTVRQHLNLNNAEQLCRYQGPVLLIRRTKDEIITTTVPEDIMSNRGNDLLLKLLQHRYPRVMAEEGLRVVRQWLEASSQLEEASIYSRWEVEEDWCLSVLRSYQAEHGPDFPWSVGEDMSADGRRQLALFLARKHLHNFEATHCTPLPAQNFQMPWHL
Assay: Inhibition of recombinant human ABHD16A expressed in HEK293T cells incubated for 1 hr by fluorescence based analysis
In this section, each of the compounds is paired with its reported IC50.
Write down the numeric answer in nM and omit the unit.

COc1nn(-c2cccc([N+](=O)[O-])c2)c(=O)o1 = 60
COc1nn(-c2ccc(F)cc2)c(=O)o1 = 30

// switching to the query compound
Give its IC50 value. Item: CCCCCCCCCCCCCC1OC(=O)/C1=C\CCCCC(N)=O (centres undefined)
200
